# Tested on: BT-549 breast
# Assay Comment: NCI-60 one-dose screen, 48 h (100 = growth as untreated, 0 = no growth, -100 = all killed)
# Condition Summary: 10 µM unless noted
# Protocol: Growth inhibition of the BT-549 human tumor cell line is measured as a screen for anti-cancer activity. Cells are grown in 96 well plates and exposed to the test compound for 48 hours. Compounds are tested at a single concentration, which is 10^-5 M for most compounds. The reported endpoint is percent growth (GI% or GIPRCNT), where numbers from 0 - 100% represent growth inhibition, and numbers from -100% - 0 represent cell death. For example, a value of 40 represents 60% growth inhibition. […]
About 83,000 compounds went through this panel and 20% of them were active in at least one assay; those are over-represented in the sample as a whole.
Value Type: growth (%)
Write it as a number; the unit % goes unstated.

COc1ccc(/C=N/Nc2cc(=O)[nH]c3ccc(Cl)cc23)cc1 :: 32.1
COc1ccc2sc3c(NCCO)nc4ccccc4c3c(=O)c2c1 :: 100
Oc1ccc(C#CCOc2ccccc2)cc1CNCCN(Cc1ccccn1)Cc1ccccn1 :: 37.7

So what does the record say about growth for c1cc2nc(-c3cn[nH]c3)c3c(c2cc1-c1cn[nH]c1)C1CCC3C1 (centres undefined) ?
62

So what does the record say about growth for `C=C1C(=O)O[C@H]2[C@H]1CC/C(COC(=O)NCCOCCOCC(=O)Nc1ccc(OC)c(C(N)=O)c1O)=C\CC[C@@]1(C)O[C@@H]21` ?
68.6

So what does the record say about growth for `COc1cc2cc(Oc3ccc(NC(=O)Nc4ccc(Cl)c(Cl)c4)cc3)c(C)nc2cc1OCCN1CCOCC1` ?
72.5

So what does the record say about growth for `Cn1cc(-c2cc3ncnc(Nc4ccc(CC(=O)Nc5cc(C(C)(C)C)nn5C)cc4)c3s2)cn1` ?
45.7

So what does the record say about growth for NC1=NC(c2cccc(Br)c2)c2sc3ccc(Cl)cc3c2N1 (centres undefined) ?
122

So what does the record say about growth for `COc1cc(/C=N/NC(=O)c2ccc(C)nc2)cc(OC)c1OC` ?
105

---

# Test system: NCI-H522 lung
# Assay Comment: NCI-60 one-dose screen, 48 h
# Condition Summary: 10 µM unless noted
This is part of a sample that, as a whole, favours compounds with a hit. Of some 83,000 tested, about 20% had one in any assay. Calls of active or inactive are those of the source. The calls were made as follows: active = growth percent below 10; inactive = the rest.
Choose the fitting class; nothing outside active, inactive is accepted.

COc1ccc2sc3c(NCCO)nc4ccccc4c3c(=O)c2c1 :: inactive
[O-][n+]1c2ccccc2[n+]([O-])c2c3ccccc3[nH]c21 :: inactive
COc1cc(/C=N/NC(=O)c2ccc(C)nc2)cc(OC)c1OC :: inactive
O=C(S)CNC(=O)c1ccccc1 :: inactive
O=C(CCN1C(=O)/C(=C/c2ccc(O)cc2)SC1=S)Nc1ccc(Cl)cc1 :: inactive
Cc1cccc(OCC(O)CN2CCN(c3ccc(Cl)cc3)CC2)c1 (stereo unspecified) :: inactive

Which outcome was assigned to `NCCCNc1nc2ccccc2c2c(=O)c3cccc(F)c3sc12` in this test?
inactive

Which outcome was assigned to `COc1ccc(-c2cc(-c3ccc(Cl)cc3)c(C#N)c(=O)n2CCCCCC(=O)Nc2ccccc2N)cc1` in this test?
inactive

Which outcome was assigned to `COc1ccc(-c2nc3sc(-c4ccc(Cl)cc4)cn3n2)cc1` in this test?
inactive

Which outcome was assigned to `CN1CCN(c2ccc(-c3ccc4ncc(C#N)c(Nc5ccc(F)c(Cl)c5)c4c3)cn2)CC1` in this test?
inactive

Which outcome was assigned to `CN1CCN(c2ccc(-c3ccc4ncc(C#N)c(Nc5ccc(F)c(Cl)c5)c4c3)cc2)CC1` in this test?
inactive

Which outcome was assigned to `CN(C)CCS(=O)(=O)Nc1cc(-c2ccc3ncc(C#N)c(Nc4ccc(F)c(Cl)c4)c3c2)cnc1Cl` in this test?
active
